assay: Evaluation of pharmacokinetic parameters for triamcinolone acetonide following intravenous dosing of triamcinolone acetonide phosphate ester in adults.; type: ADME, organism-based; conditions: human, in vivo, dosed compound id 470, dosed compound name TRIAMCINOLONE ACETONIDE PHOSPHATE ESTER, tissue Plasma
measurement_label: clearance (mL/min)
Hi! Could you send only the number? It should be in mL/min, unit omitted.

[Q] Please report the recorded clearance for CC1(C)O[C@@H]2C[C@H]3[C@@H]4CCC5=CC(=O)C=C[C@]5(C)[C@@]4(F)[C@@H](O)C[C@]3(C)[C@]2(C(=O)CO)O1 [TRIAMCINOLONE ACETONIDE] .
[A] 753

----------
assay: Pharmacokinetic parameters for triamcinolone acetonide evaluated after intranasal administration of triamcinolone acetonide nasal spray.; format: ADME, organism-based; parameters: dose 220 mcg, route intranasal, dose 110 to 440; settings: human, in vivo, inhaled or intranasal; dose 220 mcg, dosed compound id 47, dosed compound name TRIAMCINOLONE ACETONIDE, regimen Single dose, route intranasal, tissue Plasma
measurement_label: half-life

[Q] Please report the recorded half-life for CC1(C)O[C@@H]2C[C@H]3[C@@H]4CCC5=CC(=O)C=C[C@]5(C)[C@@]4(F)[C@@H](O)C[C@]3(C)[C@]2(C(=O)CO)O1 [TRIAMCINOLONE ACETONIDE] .
[A] 3.1 h

----------
experiment: Pharmacokinetic parameters for triamcinolone acetonide evaluated after intranasal administration of triamcinolone acetonide nasal spray.; type: ADME, organism-based; design: dose 220 mcg, route intranasal, dose 110 to 440; conditions: human, in vivo, inhaled or intranasal; dosed compound id 47, dosed compound name TRIAMCINOLONE ACETONIDE, regimen Single dose, tissue Plasma; read-out: AUC(0 to inf)
measurement_label: AUC

[Q] Please report the recorded AUC for CC1(C)O[C@@H]2C[C@H]3[C@@H]4CCC5=CC(=O)C=C[C@]5(C)[C@@]4(F)[C@@H](O)C[C@]3(C)[C@]2(C(=O)CO)O1 [TRIAMCINOLONE ACETONIDE] .
[A] 1.4 to 4.7 ng·h/mL

----------
assay: Evaluation of pharmacokinetic parameters for triamcinolone acetonide following intravenous dosing of triamcinolone acetonide phosphate ester in adults.; format: ADME, organism-based; conditions: human, in vivo, dosed compound id 470, dosed compound name TRIAMCINOLONE ACETONIDE PHOSPHATE ESTER, tissue Plasma
measurement_label: Vd (L)
Hi! Could you send only the number? It should be in L, unit omitted.

[Q] Please report the recorded Vd for CC1(C)O[C@@H]2C[C@H]3[C@@H]4CCC5=CC(=O)C=C[C@]5(C)[C@@]4(F)[C@@H](O)C[C@]3(C)[C@]2(C(=O)CO)O1 [TRIAMCINOLONE ACETONIDE] .
[A] 99.5

----------
assay: Pharmacokinetic parameters for triamcinolone acetonide evaluated after intranasal administration of triamcinolone acetonide nasal spray.; assay type: ADME, organism-based; design: dose 220 mcg, route intranasal, dose 110 to 440; details: human, in vivo, inhaled or intranasal; dose 220 mcg, dosed compound id 47, dosed compound name TRIAMCINOLONE ACETONIDE, regimen Single dose, route intranasal, tissue Plasma
measurement_label: Tmax (h)
Hi! Could you send only the number? It should be in h, unit omitted.

[Q] Please report the recorded Tmax for CC1(C)O[C@@H]2C[C@H]3[C@@H]4CCC5=CC(=O)C=C[C@]5(C)[C@@]4(F)[C@@H](O)C[C@]3(C)[C@]2(C(=O)CO)O1 [TRIAMCINOLONE ACETONIDE] .
[A] 1.5
